- Test system: U2OS
- protocol-text: Incucyte cell viability with U2OS; note: unitless GR value; below 1 slowed growth and below 0 cell loss
- Type: toxicity, cell-based
- condition-parameters: human, 18 h, 10 µM, compound concentration 10 uM, replicate number 2
endpoint-name: Growth Rate
Answer with a number only.

Please review the entries below; each comes with its answer.
molecule: CCCCCCCCCCCCCC(=O)O[C@@H]1[C@@H](C)[C@@]2(O)[C@@H](C=C(CO)C[C@]3(O)C(=O)C(C)=C[C@@H]23)[C@@H]2C(C)(C)[C@]12OC(C)=O [PHORBOL MYRISTATE ACETATE]
Growth Rate: 0.92

molecule: CNC(=O)COc1cc2cc(Nc3nc(N4CCC(C(=O)N(C)C)CC4)ncc3Cl)cc(OC)c2n(C)c1=O
Growth Rate: 0.87

molecule: Cn1c(SCc2ccc(C(C)(C)C)cc2)nc(N)cc1=O
Growth Rate: 0.71

molecule: C[C@@H](C(N)=O)[C@H](N)c1nc2cc(C(C)(C)C)ccc2[nH]1 [PF-06305591]
Growth Rate: 0.91

molecule: COCCCS(=O)(=O)c1cc(C)c(-c2ccc(F)c3c2CC[C@H]3Oc2ccc3c(c2)OC[C@H]3CC(=O)O)c(C)c1
Growth Rate: 0.88

# input molecule: CC(C)(C)S(=O)(=O)c1ccc2nccc(Nc3n[nH]c4ccc(F)cc34)c2c1 ; wanted: its Growth Rate
-0.02

Now consider Cc1cc([N+](=O)[O-])c(NS(=O)(=O)c2cccc(C(=O)O)c2)cc1-c1cccnc1 [ALOFANIB] and answer again.
0.64

Similarly, CCN1CCN(Cc2ccc(NC(=O)c3ccc(C)c(Oc4ccnc5[nH]ccc45)c3)cc2C(F)(F)F)CC1.Cl.Cl.Cl.O ?
0.15

Also check C[C@@H](CN1CCC(Cc2ccccc2)CC1)[C@@H](O)c1ccc(O)cc1
0.99

Provenance of the data: ChEMBL document CHEMBL5303304
